Entry source: patent US7799775B2

tested.on: human 5-HT3 receptor (Homo sapiens, UniProt P46098)
Construct: purchased BIOLINKS K.K; host or cells: HEK-293 cells (membrane preparation)
Sequence (P46098 24-478): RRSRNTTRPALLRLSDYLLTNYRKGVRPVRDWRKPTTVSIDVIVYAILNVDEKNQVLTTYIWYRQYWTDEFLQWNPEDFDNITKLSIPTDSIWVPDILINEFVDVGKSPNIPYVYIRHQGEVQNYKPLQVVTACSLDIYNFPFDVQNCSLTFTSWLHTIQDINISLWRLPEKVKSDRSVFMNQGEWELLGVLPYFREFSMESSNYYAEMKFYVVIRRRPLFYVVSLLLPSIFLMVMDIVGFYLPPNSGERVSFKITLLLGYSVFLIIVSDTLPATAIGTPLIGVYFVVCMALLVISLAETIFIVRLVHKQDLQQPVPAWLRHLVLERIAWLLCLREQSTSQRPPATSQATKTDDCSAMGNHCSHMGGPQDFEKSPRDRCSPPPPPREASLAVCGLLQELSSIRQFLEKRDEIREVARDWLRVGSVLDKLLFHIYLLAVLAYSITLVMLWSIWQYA
assay: Measurement of affinity to human 5-HT3 receptor (in vitro), [3H]BRL-43694 binding
experimental.conditions: test compound 100 nmols/L; [3H]BRL-43694 0.5 nmols/L; HEK-293 cell membrane expressing human 5-HT3 receptor; read-out: Percent Inhibition (%) on Each Receptor's Binding at 10^−7M, 5-HT3
Decision: inhibition at 0.1 µM compared against 90%; not below it gives YES, below it gives NO.

Worked set:
> print(dat)
                                   molecule                                 tested.on  assigned.category
1  COc1ccc2ccnc(N3CCNC(C)C3)c2c1 (centres unmarked)  human 5-HT3 receptor (Homo sapiens, UniProt P46098)                YES
2                  Cc1cc2c(N3CCNCC3)nccc2o1  human 5-HT3 receptor (Homo sapiens, UniProt P46098)                 NO

Prompt line: Quick check, inhibition at 0.1 µM >= 90%? Cc1cc2c(N3CCN4CCC[C@@H]4C3)nccc2o1
Response line: NO

Prompt line: Does the reported inhibition at 0.1 µM for Cn1c(SCCCN2CCN(c3ccc4ccccc4n3)CC2)nc2ccccc2c1=O fall at or above the 90% mark?
Response line: NO

Prompt line: Is inhibition at 0.1 µM for Nn1c(CCCCN2CCN(c3ccc4ccccc4n3)CC2)nc2c(c1=O)CCCCC2 at or above 90%?
Response line: NO
